Test system: Candida albicans, ATCC 14053
measurement-description: SABHI agar plate growth inhibition screen
Format: cell-based
test-parameters: Candida Albicans; 25µg/ml; 48 hours; 30°C; growth grade
For each record, write down the corresponding Growth at 25µg/ml compared to control at 48 hours.

Problem: # Growth at 25µg/ml compared to control at 48 hours lookup, item CC1(O)c2cccc(O)c2C(=O)C2=C(O)C3C(=O)C(C(N)=O)=C(O)CC3CC21 (stereo not shown)
Result: 0 (complete inhibition of growth.)

Problem: Fill in the blank: the reported Growth at 25µg/ml compared to control at 48 hours of O=C(NCN1CCNCC1)C1=C(O)C[C@@H]2C[C@@H]3Cc4cccc(O)c4C(=O)C3=C(O)[C@]2(O)C1=O is ____.
Result: 0 (complete inhibition of growth.)

The values you see were collected from patent EP1296703B1.
